Kindly supply the reported growth values for the records listed here.
# System: TK-10 renal
# METHOD SUMMARY: NCI-60 one-dose screen, 48 h (100 = growth as untreated, 0 = no growth, -100 = all killed)
# TEST CONTEXT: 10 µM unless noted
This is part of a sample that, as a whole, favours compounds with a hit. Of some 83,000 tested, about 20% had one in any assay.
Report as a plain number; the unit % is understood.

In: // lookup growth for CCCCOc1ccc(S(=O)(=O)N2CCN(c3nc(C)cc(N4CCOCC4)n3)CC2)cc1
Out: 33.6

In: Next up: CCc1cc2c(cc1Cl)nc1c(=O)[nH]c(=O)nc-1n2CCOCC(C)(C)C
Out: 160

In: Next up: NC1=NC2(CCCC2)N(c2ccc(S(=O)(=O)Nc3nccs3)cc2)C(N)=N1
Out: 104

In: Next up: Cc1ccc(C)c(NC2=C(Cl)C(=O)c3nc(C)ccc3C2=O)c1
Out: 147

In: Next up: CCN1CCN(c2ccc(NC(=O)Nc3ccc4c(ccn4-c4ccnc(C(=O)NC)c4)c3)cc2C(F)(F)F)CC1
Out: 113

In: Next up: O=C(Nc1cc(C(F)(F)F)cc(C(F)(F)F)c1)Nc1ccc2oc(=O)ccc2c1
Out: 16.1

In: Next up: Brc1cc(-c2cc(-c3ccc4c(c3)OC=CO4)[nH]n2)cs1
Out: 192

In: Next up: CC1CC(=O)C2=C(C1)Nc1ccc(Br)cc1CC2c1c[nH]c2ccc(Br)cc12 (centres undefined)
Out: 79.4

In: Next up: Cc1ccc(C(=O)Nc2ccc(CNCCN3CCOCC3)c(C(F)(F)F)c2)cc1C#Cc1cnc2cccnn12
Out: 51.4

###

# Tested on: BT-549 breast
# METHOD SUMMARY: NCI-60 one-dose screen, 48 h (100 = growth as untreated, 0 = no growth, -100 = all killed)
# TEST CONTEXT: 10 µM unless noted
The panel holds about 83,000 compounds, 20% with a hit somewhere; the sample as a whole holds those more often. The source made the active and inactive calls. How the source made its calls: active means growth percent below 10; inactive means the rest.
Kindly supply the reported growth values for the records listed here.

In: // lookup growth for c1ccc(-c2cn3c(-c4c[nH]c5ccccc45)csc3n2)cc1
Out: 41.4% (inactive)

In: Next up: N#C/C(=C\c1ccc(-c2ccc(Cl)cc2)o1)C(=O)Nc1ncc(Cc2ccc(Br)cc2)s1
Out: 24.7% (inactive)

In: Next up: Cc1ccc(NC(=O)Nc2nc3ccc([N+](=O)[O-])cc3s2)cc1
Out: -9.82% (active)

In: Next up: Cc1ccc(/C(N)=N/C(N)=N/c2nc3ccccc3s2)cc1
Out: 102% (inactive)

In: Next up: NNc1nnc2nc(Nc3ccccc3)nc(Nc3ccc(S(N)(=O)=O)cc3)n12
Out: 107% (inactive)

In: Next up: COc1ccccc1/C=C1\Oc2ccc(O)c(O)c2C1=O
Out: 89.5% (inactive)

In: Next up: CNC(=O)c1cc(Oc2ccc3c(c2)sc2nc(-c4ccc(N(C)C)cc4)cn23)ccn1
Out: 36.5% (inactive)

In: Next up: C[C@@H]1OCC2(CCN(c3cnc(C(=O)Nc4cc(F)cc5cccnc45)cn3)CC2)[C@@H]1N
Out: 90.1% (inactive)

In: Next up: CSc1ccc(/C(=N/N=C(N)N)c2ccc(Cl)cc2)cc1
Out: -37.3% (active)

In: Next up: Cc1nc(N)sc1-c1csc(Nc2ccc(C(F)(F)F)cc2)n1
Out: -12% (active)
